Molecular target: T1, human Pals1 PDZ domain (Pals1^PDZ; residues 251-335), wild type (human, UniProt Q8N3R9 251-335)
T1 chain: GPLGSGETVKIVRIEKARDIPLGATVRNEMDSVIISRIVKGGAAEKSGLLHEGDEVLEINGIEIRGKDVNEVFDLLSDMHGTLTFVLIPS
Test: FP
pKd: −log10 of the molar value. Ends that are not written are not given here.
The following binders are shown together with reported pKd values.
measure name: pKd

- RVEMWNLMPPPAAERLI (also: fluorescein label, position not given here) [fluorescein-labelled Crb^17 M1402A]: 5.09
- AMERLI (also: fluorescein label, position not given here) [fluorescein-labelled shorter Crb1 peptide spanning residues 1401-1406 (Crb^6)]: 4.77
- RVEMWNLMPPPAMEALI (also: fluorescein label, position not given here) [fluorescein-labelled Crb^17 R1404A]: 4.29
- RVEMWNLMPPPAMARLI (also: fluorescein label, position not given here) [fluorescein-labelled Crb^17 E1403A]: 4.27
- RVEMWNLMPPPAMERAI (also: fluorescein label, position not given here) [fluorescein-labelled Crb^17 L1405A]: 4.26
